# pKi per record follows
tested_system: nuclear factor-kappa B (NF-kB)-inducing kinase (NIK) (Homo sapiens)
Construct: made in house; host or cells: baculovirus-infected insect cells
Sequence (Q99558 whole entry): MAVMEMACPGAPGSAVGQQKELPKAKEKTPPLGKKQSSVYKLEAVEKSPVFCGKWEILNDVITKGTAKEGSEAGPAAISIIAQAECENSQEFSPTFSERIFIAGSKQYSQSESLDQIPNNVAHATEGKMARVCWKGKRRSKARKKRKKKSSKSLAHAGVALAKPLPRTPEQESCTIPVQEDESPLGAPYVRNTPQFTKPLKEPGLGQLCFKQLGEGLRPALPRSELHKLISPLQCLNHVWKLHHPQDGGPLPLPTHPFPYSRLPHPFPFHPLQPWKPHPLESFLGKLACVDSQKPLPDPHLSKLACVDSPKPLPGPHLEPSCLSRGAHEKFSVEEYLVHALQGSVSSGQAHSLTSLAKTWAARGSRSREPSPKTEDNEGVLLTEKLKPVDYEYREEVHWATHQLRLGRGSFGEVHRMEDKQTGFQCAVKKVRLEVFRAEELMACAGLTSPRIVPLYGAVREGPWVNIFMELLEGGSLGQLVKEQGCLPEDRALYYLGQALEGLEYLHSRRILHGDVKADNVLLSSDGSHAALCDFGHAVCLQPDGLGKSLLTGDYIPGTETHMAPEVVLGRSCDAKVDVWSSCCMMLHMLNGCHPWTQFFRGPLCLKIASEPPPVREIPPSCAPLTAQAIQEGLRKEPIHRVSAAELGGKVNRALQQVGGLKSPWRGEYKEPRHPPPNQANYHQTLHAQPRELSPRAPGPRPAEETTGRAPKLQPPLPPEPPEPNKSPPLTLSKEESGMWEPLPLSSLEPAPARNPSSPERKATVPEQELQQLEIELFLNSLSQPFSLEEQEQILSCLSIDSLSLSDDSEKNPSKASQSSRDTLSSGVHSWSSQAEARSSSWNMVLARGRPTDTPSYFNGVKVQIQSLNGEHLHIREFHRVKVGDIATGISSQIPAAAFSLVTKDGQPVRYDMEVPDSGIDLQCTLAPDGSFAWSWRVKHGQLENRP
run_description: NIK Enzyme Inhibition Assay (Transcreener ADP assay)
Assay type: biochemical
assay_setup: purified NIK 0.2-1 nM, 10 uM ATP, fluorescence polarization, Morrison's quadratic equation; read-out: inhibitory value (Ki) for NIK
pKi: −log10 of the molar value.
endpoint_name: pKi

> print(dat)
                                   molecule  endpoint.name  qualifying.sign  recorded.value
1  Cc1nc([C@](C)(O)C#Cc2ccc3nc(OC4COC4)n(-c4ccnc(N)n4)c3c2)no1 [Example T1.1-47]            pKi                =            8.52
2  CC(O)(C#Cc1ccc2c(C(=O)Nc3cccnc3)nn(-c3ccnc(N)n3)c2c1)c1ncccn1 (stereo not drawn) [Example T1.1-143]            pKi                =            8.70
3  Cc1cc(C(C)(O)C#Cc2ccc3nc(OCC(O)CO)n(-c4ccnc(N)n4)c3c2)no1 (stereo not drawn) [Example T1.1-13]            pKi                =            9.22
4  Cc1cc(C(C)(O)C#Cc2ccc3c(c2)n(-c2ccnc(N)n2)c(=O)n3CC2CC2)no1 (stereo not drawn) [Example T1.1-32]            pKi                =            8.70
5  CC(O)(C#Cc1ccc2c(C(=O)N3CCOCC3)nn(-c3ccnc(N)n3)c2c1)c1ncccn1 (stereo not drawn) [Example T1.1-54]            pKi                =            8.40
6  CC(O)(C#Cc1ccc2c(C(=O)N3CC(F)(F)C3)nn(-c3ccnc(N)n3)c2c1)c1ncccn1 (stereo not drawn) [Example T1.1-139]            pKi                =            7.70
7  CC(C)(O)c1nn(-c2ccnc(N)n2)c2cc(C#CC(C)(O)c3ccccn3)ccc12 (stereo not drawn) [Example T1.1-56]            pKi                =            8.40
8  CCOc1nc2ccc(C#CC(C)(O)c3cc(CO)on3)cc2n1-c1ccnc(N)n1 (stereo not drawn) [Example T1.1-17]            pKi                =            9.00
9  Cc1nc2ccc(C#CC(C)(C)CO)cc2n1-c1ncnc(N)n1 [Example T1.1-118]            pKi                ≤            5.30

Value source: patent US8901313B2
